# Study Target: YAE1 (UniProt Q9NRH1)
# Sequence (Q9NRH1 whole entry, looked up): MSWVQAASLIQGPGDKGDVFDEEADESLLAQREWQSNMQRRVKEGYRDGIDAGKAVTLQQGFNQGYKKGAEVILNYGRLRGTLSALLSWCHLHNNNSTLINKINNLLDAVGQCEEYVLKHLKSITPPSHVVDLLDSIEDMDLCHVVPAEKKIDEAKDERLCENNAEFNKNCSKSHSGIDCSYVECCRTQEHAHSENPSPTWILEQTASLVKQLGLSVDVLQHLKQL
# Experiment Notes: log2 fold change, soluble protein after heating vs DMSO (PISA); higher = thermal stabilisation; K562 cells, 10 uM, 30 min; active = over 0.2 and 3.5 SD of the protein, either way, in both replicates (recomputed)
Of roughly 7,900 targets only a part is listed; those with a hit were picked by preference. About 0.6% of all pairs of compound and target were hits.
Readout: log2 fold change
Lab note: record the figure alone, no unit after it.

NCC(=O)Nc1ccc(-n2nc(C(F)(F)F)cc2-c2ccc3c(ccc4ccccc43)c2)cc1; -0.011
CC(C)c1cnn2c(NCc3ccccc3)cc(NCCCCCCN)nc12; 0.057

// log2 fold change lookup, compound = "C/C(=N\NC(=O)c1cccc(S(=O)(=O)N2CCOCC2)c1)c1cc(Cl)ccc1O" , result: -0.051

Consider O=C(CCCCCCNC(=O)c1cnc(N(c2ccccc2)c2ccccc2Cl)nc1)NO [citarinostat] . Its measured log2 fold change is 0.04

Looking up "CC[C@H](C)n1cc(C)c2c(C(=O)NCc3c(C)cc(C)[nH]c3=O)cc(-c3ccc(N4CCNCC4)nc3)cc21" , I found its log2 fold change recorded as 0.02

----------
# Study Target: YWHAZ (UniProt E7ESK7)
# Experiment Notes: log2 fold change, soluble protein after heating vs DMSO (PISA); higher = thermal stabilisation; K562 cells, 10 uM, 30 min; active = over 0.2 and 3.5 SD of the protein, either way, in both replicates (recomputed)
About 7,900 targets were measured; listed, in parts, are those with a hit and a random draw of the rest. About 0.6% of all pairs of compound and target were hits.
Readout: log2 fold change
Keep the answer to the number alone.

COc1cc(Nc2ncc3c(n2)-c2ccc(Cl)cc2C(c2c(F)cccc2OC)=NC3)ccc1C(=O)O [alisertib]; -0.041

Consider "NC1(c2ccc(-c3nc4ccn5c(=O)[nH]nc5c4cc3-c3ccccc3)cc2)CCC1" . Its measured log2 fold change is -0.206

The molecule "CC(=O)c1cnc2ccc(-c3cc(Cl)c(O)c(Cl)c3)nc2c1N[C@H]1CC[C@H](CN(C)C)CC1" showed log2 fold change equal to -0.081

For reference, reported log2 fold change for CN1CC[C@H](c2c(O)cc(O)c3c(=O)cc(-c4ccccc4Cl)oc23)[C@H](O)C1 [alvocidib] stands at -0.003

Given item "Cc1ccc2c(=O)c3ccccc3n(CCCN)c2c1C" , the value recorded as its log2 fold change is 0.029

----------
# Study Target: ZC3HC1 (UniProt Q86WB0)
# Sequence (Q86WB0 whole entry, looked up): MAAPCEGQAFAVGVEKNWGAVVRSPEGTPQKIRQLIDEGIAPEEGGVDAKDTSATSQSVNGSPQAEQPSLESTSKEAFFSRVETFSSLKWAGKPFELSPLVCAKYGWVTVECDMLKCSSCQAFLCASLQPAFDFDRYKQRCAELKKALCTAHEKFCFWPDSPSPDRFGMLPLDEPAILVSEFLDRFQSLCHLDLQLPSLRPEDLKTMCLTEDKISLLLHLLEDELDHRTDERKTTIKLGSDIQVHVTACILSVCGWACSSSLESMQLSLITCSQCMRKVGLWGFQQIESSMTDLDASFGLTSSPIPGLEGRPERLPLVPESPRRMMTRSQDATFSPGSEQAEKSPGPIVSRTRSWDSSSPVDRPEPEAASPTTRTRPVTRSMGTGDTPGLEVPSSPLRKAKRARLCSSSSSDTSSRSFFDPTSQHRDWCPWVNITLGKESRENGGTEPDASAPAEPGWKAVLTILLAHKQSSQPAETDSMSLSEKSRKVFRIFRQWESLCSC
# Experiment Notes: log2 fold change, soluble protein after heating vs DMSO (PISA); higher = thermal stabilisation; K562 cells, 10 uM, 30 min; active = over 0.2 and 3.5 SD of the protein, either way, in both replicates (recomputed)
Of roughly 7,900 targets only a part is listed; those with a hit were picked by preference. About 0.6% of all pairs of compound and target were hits.
Readout: log2 fold change
// no unit string in output, number only

Examples with answers:
CN(CCOc1ccc(C[C@@H]2SC(=O)NC2=O)cc1)c1ccccn1 (racemic); 0.086
CCN(CC)Cc1ccc2cc(COC(=O)Nc3ccc(C(=O)NO)cc3)ccc2c1; 0.031
O=C(O)c1ccc2c(c1)nc(Nc1cccc(Cl)c1)c1ccncc12; 0.06

The recorded log2 fold change for entry "Cc1ccc(NC(=O)c2cccc(C(C)(C)C#N)c2)cc1Nc1ccc2ncn(C)c(=O)c2c1" equals 0.011

Lab note: "Cc1ncc(-c2ccnc(Nc3ccc(S(C)(=O)=O)cc3)n2)n1C(C)C" gave log2 fold change of -0.01
